Target Entity: σ1-receptor (Cavia porcellus)
Construct: guinea pig brains were homogenized; from tissue; host or cells: guinea pig brain membranes
Sequence (Q60492 whole entry): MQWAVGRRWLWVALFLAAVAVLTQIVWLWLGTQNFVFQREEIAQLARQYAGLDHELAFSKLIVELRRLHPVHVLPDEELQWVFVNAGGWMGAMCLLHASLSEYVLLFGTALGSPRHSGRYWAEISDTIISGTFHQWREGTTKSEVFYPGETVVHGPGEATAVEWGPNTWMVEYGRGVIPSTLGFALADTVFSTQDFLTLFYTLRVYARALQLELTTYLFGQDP
Measurement Notes: Sigma-1 receptor binding assay, [3H](+)-pentazocine, brain membranes
Run Parameters: compound 10^−8 M; [3H](+)-pentazocine 0.5 nM; guinea pig brain membranes
Outcome Measure: inhibition at 0.01 µM (%)

Molecule	Readout Value
CN(CC(=O)Nc1ccn(-c2ccc(Cl)c(Cl)c2)n1)C1CCCCC1 [Example 11]	68.8
Clc1ccc(-n2ccc(NCCN3CCCCC3)n2)cc1Cl.O=C(O)C(=O)O [Example 6, oxalate]	53.6
CCN(CC)CCNc1ccn(-c2ccc(Cl)c(Cl)c2)n1 [Example 1]	1.8

(A) Clc1ccc(-n2ccc(NCCN3CCN(C4CCCCC4)CC3)n2)cc1Cl [Example 14]
(B) O=C(CN1CCCCC1)Nc1ccn(-c2ccc(Cl)c(Cl)c2)n1 [Example 5]
Prompt line: Quick check, higher inhibition at 0.01 µM between A and B ? Choose, then provide that item's label.
Response line: A

* * *

Outcome Measure: melting point

Look over these answered cases.
Structure Notation	melting point
CCN(CC)CC(=O)Nc1ccn(-c2ccc(Cl)c(Cl)c2)n1	69 to 74 °C
O=C(CN1CCOCC1)Nc1ccn(-c2cccc(Cl)c2)n1.O=C(O)C(=O)O	219 to 220 °C
CN(CCNc1ccn(-c2ccc(Cl)c(Cl)c2)n1)C1CCCCC1.O=C(O)C(=O)O	114 to 116 °C
CN(CC(=O)Nc1ccn(-c2ccc(Cl)c(Cl)c2)n1)Cc1ccccc1.O=C(O)C(=O)O	206 to 209 °C
Cc1cc(SCCN2CCCCC2)nn1-c1ccc(Cl)c(Cl)c1.O=C(O)C(=O)O	162 to 164 °C
Clc1ccc(-n2ccc(NCCN3CCN(C4CCCCC4)CC3)n2)cc1Cl	115 to 119 °C
CCN(CC)CCSc1cc(C)n(-c2ccc(Cl)c(Cl)c2)n1.O=C(O)C(=O)O	184 to 188 °C
Cc1cc(SCCN2CCCC2)nn1-c1ccc(Cl)c(Cl)c1.O=C(O)C(=O)O	144 to 151 °C

Prompt line: Reported melting point, compound O=C(CN1CCCCCC1)Nc1ccn(-c2ccc(Cl)c(Cl)c2)n1 : ____
Response line: 99 to 102 °C

Prompt line: Query CN(CC(=O)Nc1ccn(-c2ccc(Cl)c(Cl)c2)n1)C1CCCCC1 next
Response line: 88 to 94 °C

Prompt line: Ok, now O=C(CN1CCCCC1)Nc1ccn(C2CCCCC2)n1.O=C(O)C(=O)O
Response line: 177 to 181 °C

Prompt line: Follow-up entry: O=C(CN1CCCCC1)Nc1ccn(-c2ccc(Cl)c(Cl)c2)n1
Response line: 78 to 82 °C

Prompt line: Please answer likewise for Clc1ccc(-n2ccc(NCCN3CCCCC3)n2)cc1Cl.O=C(O)C(=O)O
Response line: 168 to 172 °C

Prompt line: Lookup Clc1cccc(-n2ccc(NCCN3CCOCC3)n2)c1.O=C(O)C(=O)O
Response line: 144 to 146 °C
